Answer each item with its documented shrunken log2 fold change.
System: Escherichia coli TOP10;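 note: peptides expressed intracellularly from a pBAD plasmid library in pooled LB shake-flask culture, induced with 0.3% L-arabinose, DNA abundance read by NGS, three biological replicates, DESeq2 with apeglm shrinkage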
Experimental Details: shrunken log2 fold change of peptide-encoding DNA abundance (4.5 h post-induction vs induction); higher = less antimicrobial activity (less host growth inhibition)
Assay Context: time post-induction: 4.5 h; library: site-saturation at positions 5, 18, 19, 20
Answer using only a numeral; do not append any unit.

Ask | State its shrunken log2 fold change on Escherichia coli TOP10: "RRIRCRPPRLPRPRPRPQQMPRP"
Reply | 0.013

Ask | State its shrunken log2 fold change on Escherichia coli TOP10: "RRIRVRPPRLPRPRPRPFIRPRP"
Reply | -0.148

Ask | State its shrunken log2 fold change on Escherichia coli TOP10: "RRIRARPPRLPRPRPRPHPYPRP"
Reply | -0.484

Ask | State its shrunken log2 fold change on Escherichia coli TOP10: "RRIRARPPRLPRPRPRPSRAPRP"
Reply | 0.555

Ask | State its shrunken log2 fold change on Escherichia coli TOP10: "RRIRYRPPRLPRPRPRPMMNPRP"
Reply | -0.367

Ask | State its shrunken log2 fold change on Escherichia coli TOP10: "RRIRSRPPRLPRPRPRPPRTPRP"
Reply | 0.619

Ask | State its shrunken log2 fold change on Escherichia coli TOP10: "RRIRKRPPRLPRPRPRPIFIPRP"
Reply | -0.173

Ask | State its shrunken log2 fold change on Escherichia coli TOP10: "RRIRMRPPRLPRPRPRPGFWPRP"
Reply | 0.836

Ask | State its shrunken log2 fold change on Escherichia coli TOP10: "RRIRDRPPRLPRPRPRPNRNPRP"
Reply | -0.227

Ask | State its shrunken log2 fold change on Escherichia coli TOP10: "RRIRLRPPRLPRPRPRPITDPRP"
Reply | -0.465

Ask | State its shrunken log2 fold change on Escherichia coli TOP10: "RRIRYRPPRLPRPRPRPFAFPRP"
Reply | -1.05

Ask | State its shrunken log2 fold change on Escherichia coli TOP10: "RRIRRRPPRLPRPRPRPTIGPRP"
Reply | -0.229

Ask | State its shrunken log2 fold change on Escherichia coli TOP10: "RRIRTRPPRLPRPRPRPPTFPRP"
Reply | -0.203

Ask | State its shrunken log2 fold change on Escherichia coli TOP10: "RRIRKRPPRLPRPRPRPKTRPRP"
Reply | 0.444

Ask | State its shrunken log2 fold change on Escherichia coli TOP10: "RRIRMRPPRLPRPRPRPIGFPRP"
Reply | -0.01

Ask | State its shrunken log2 fold change on Escherichia coli TOP10: "RRIRQRPPRLPRPRPRPPSAPRP"
Reply | 0.5

Ask | State its shrunken log2 fold change on Escherichia coli TOP10: "RRIRWRPPRLPRPRPRPSTCPRP"
Reply | -0.457

Ask | State its shrunken log2 fold change on Escherichia coli TOP10: "RRIRARPPRLPRPRPRPNCLPRP"
Reply | -0.111

Ask | State its shrunken log2 fold change on Escherichia coli TOP10: "RRIRDRPPRLPRPRPRPFGGPRP"
Reply | -0.0275

Ask | State its shrunken log2 fold change on Escherichia coli TOP10: "RRIRCRPPRLPRPRPRPHLQPRP"
Reply | -0.319

Ask | State its shrunken log2 fold change on Escherichia coli TOP10: "RRIRIRPPRLPRPRPRPLLWPRP"
Reply | 0.0456

Ask | State its shrunken log2 fold change on Escherichia coli TOP10: "RRIRIRPPRLPRPRPRPGMFPRP"
Reply | -0.284

Ask | State its shrunken log2 fold change on Escherichia coli TOP10: "RRIRNRPPRLPRPRPRPFNNPRP"
Reply | -0.193

Ask | State its shrunken log2 fold change on Escherichia coli TOP10: "RRIRARPPRLPRPRPRPGFLPRP"
Reply | 0.426

Ask | State its shrunken log2 fold change on Escherichia coli TOP10: "RRIRPRPPRLPRPRPRPTECPRP"
Reply | 0.0179

Ask | State its shrunken log2 fold change on Escherichia coli TOP10: "RRIRHRPPRLPRPRPRPFELPRP"
Reply | -0.0176

Ask | State its shrunken log2 fold change on Escherichia coli TOP10: "RRIRQRPPRLPRPRPRPNLIPRP"
Reply | -0.556

Ask | State its shrunken log2 fold change on Escherichia coli TOP10: "RRIRDRPPRLPRPRPRPLFDPRP"
Reply | 0.393

Ask | State its shrunken log2 fold change on Escherichia coli TOP10: "RRIRVRPPRLPRPRPRPALLPRP"
Reply | -0.211

Ask | State its shrunken log2 fold change on Escherichia coli TOP10: "RRIRIRPPRLPRPRPRPPPHPRP"
Reply | 0.392

Ask | State its shrunken log2 fold change on Escherichia coli TOP10: "RRIRLRPPRLPRPRPRPCHQPRP"
Reply | -0.234

Ask | State its shrunken log2 fold change on Escherichia coli TOP10: "RRIRCRPPRLPRPRPRPYHMPRP"
Reply | -0.56

Ask | State its shrunken log2 fold change on Escherichia coli TOP10: "RRIRNRPPRLPRPRPRPQNDPRP"
Reply | -0.966

Ask | State its shrunken log2 fold change on Escherichia coli TOP10: "RRIRVRPPRLPRPRPRPWQCPRP"
Reply | -0.00264

Ask | State its shrunken log2 fold change on Escherichia coli TOP10: "RRIRSRPPRLPRPRPRPHHTPRP"
Reply | -0.625

Ask | State its shrunken log2 fold change on Escherichia coli TOP10: "RRIRTRPPRLPRPRPRPYRNPRP"
Reply | -0.21

Ask | State its shrunken log2 fold change on Escherichia coli TOP10: "RRIRVRPPRLPRPRPRPQSPPRP"
Reply | -0.221

Ask | State its shrunken log2 fold change on Escherichia coli TOP10: "RRIRHRPPRLPRPRPRPRMAPRP"
Reply | 0.0651

Ask | State its shrunken log2 fold change on Escherichia coli TOP10: "RRIRLRPPRLPRPRPRPGAEPRP"
Reply | 0.505

Ask | State its shrunken log2 fold change on Escherichia coli TOP10: "RRIRFRPPRLPRPRPRPRQHPRP"
Reply | 0.0181

Ask | State its shrunken log2 fold change on Escherichia coli TOP10: "RRIRQRPPRLPRPRPRPYVYPRP"
Reply | 0.00646

Ask | State its shrunken log2 fold change on Escherichia coli TOP10: "RRIRNRPPRLPRPRPRPVKFPRP"
Reply | -0.0271

Ask | State its shrunken log2 fold change on Escherichia coli TOP10: "RRIRMRPPRLPRPRPRPGEVPRP"
Reply | 0.884

Ask | State its shrunken log2 fold change on Escherichia coli TOP10: "RRIRKRPPRLPRPRPRPDFMPRP"
Reply | 0.028

Ask | State its shrunken log2 fold change on Escherichia coli TOP10: "RRIRVRPPRLPRPRPRPDTYPRP"
Reply | -0.995

Ask | State its shrunken log2 fold change on Escherichia coli TOP10: "RRIRSRPPRLPRPRPRPWKKPRP"
Reply | -0.162

Ask | State its shrunken log2 fold change on Escherichia coli TOP10: "RRIRGRPPRLPRPRPRPLFRPRP"
Reply | 0.444

Ask | State its shrunken log2 fold change on Escherichia coli TOP10: "RRIRGRPPRLPRPRPRPTYQPRP"
Reply | 0.169

Ask | State its shrunken log2 fold change on Escherichia coli TOP10: "RRIRIRPPRLPRPRPRPSKYPRP"
Reply | -1.12

Ask | State its shrunken log2 fold change on Escherichia coli TOP10: "RRIRPRPPRLPRPRPRPCAYPRP"
Reply | -0.311

Ask | State its shrunken log2 fold change on Escherichia coli TOP10: "RRIRMRPPRLPRPRPRPKHTPRP"
Reply | 1.93

Ask | State its shrunken log2 fold change on Escherichia coli TOP10: "RRIRLRPPRLPRPRPRPCWFPRP"
Reply | -0.21

Ask | State its shrunken log2 fold change on Escherichia coli TOP10: "RRIRTRPPRLPRPRPRPPFNPRP"
Reply | 0.0539

Ask | State its shrunken log2 fold change on Escherichia coli TOP10: "RRIRGRPPRLPRPRPRPGVDPRP"
Reply | 0.951

Ask | State its shrunken log2 fold change on Escherichia coli TOP10: "RRIRSRPPRLPRPRPRPRAQPRP"
Reply | 0.106

Ask | State its shrunken log2 fold change on Escherichia coli TOP10: "RRIRWRPPRLPRPRPRPWTLPRP"
Reply | -0.0248

Ask | State its shrunken log2 fold change on Escherichia coli TOP10: "RRIRGRPPRLPRPRPRPGSDPRP"
Reply | 1.06

Ask | State its shrunken log2 fold change on Escherichia coli TOP10: "RRIRARPPRLPRPRPRPWTSPRP"
Reply | -0.064

Ask | State its shrunken log2 fold change on Escherichia coli TOP10: "RRIRNRPPRLPRPRPRPLVPPRP"
Reply | -0.213

Ask | State its shrunken log2 fold change on Escherichia coli TOP10: "RRIRKRPPRLPRPRPRPKYSPRP"
Reply | -0.13

Ask | State its shrunken log2 fold change on Escherichia coli TOP10: "RRIRQRPPRLPRPRPRPGSIPRP"
Reply | -0.218

Ask | State its shrunken log2 fold change on Escherichia coli TOP10: "RRIRGRPPRLPRPRPRPRWLPRP"
Reply | 0.527

Ask | State its shrunken log2 fold change on Escherichia coli TOP10: "RRIRSRPPRLPRPRPRPWLIPRP"
Reply | -0.0422
